# System: RARb:RXRa (NR concentration 270 nM, RXRa partner concentration 90 nM)
# experiment-notes: PBM binding z-score (relative to random genomic background probes); higher = stronger binding; sequences stand for … in GC…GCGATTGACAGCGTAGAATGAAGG
Please enter MET where PBM binding z-score is greater than or equal to 3, and NOT MET where it is lower.

Would you say CCGACTGGGGCAGAAAGGTTACCAAACCATCCGG shows PBM binding z-score at minimum 3?
NOT MET

Would you say CCAGAGAGGTGAAAGGTAACTCAGTCTGGTACGC shows PBM binding z-score at minimum 3?
NOT MET

Would you say ACAGACAGGTGAAGAAGGTAACTCAGGCTATCAT shows PBM binding z-score at minimum 3?
NOT MET

Would you say CCTGCTAGGTCATGTTCAGCTAATCTACAGTATG shows PBM binding z-score at minimum 3?
MET

Would you say CAAACTAGGTCAAAGGGCAAAGTCGAGCCAACCA shows PBM binding z-score at minimum 3?
MET

Would you say AGAATGAGGTTATTAAGATCAGGGAGTTGCGGTC shows PBM binding z-score at minimum 3?
NOT MET

Would you say GCTTGTAGACCAAGGTTAAGAAAGACTAAGCTAA shows PBM binding z-score at minimum 3?
NOT MET

Would you say GCTATTATTTGAAAGGGCAACCGAATGATTCTCG shows PBM binding z-score at minimum 3?
NOT MET

Would you say CCTACTGTGCCAAAAAGGTCATTGATGCCGATAA shows PBM binding z-score at minimum 3?
MET

Would you say ATCGAAAGGTCGACGAGGTGAGTATACACCGTTT shows PBM binding z-score at minimum 3?
MET

Would you say CCTACTGGGGCAGAAAGGTTACCATACCATCCGG shows PBM binding z-score at minimum 3?
NOT MET

* * *

# Test system: VDR homodimer (NR concentration 270 nM)
# experiment-notes: PBM binding z-score (relative to random genomic background probes); higher = stronger binding; sequences stand for … in GC…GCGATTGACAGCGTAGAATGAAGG
parameter: PBM binding z-score
Simply state the number, no unit and no words.

In one line, give reported PBM binding z-score of the entry GGACCGAGGGCATTCGAGTTGATAGCATGGCGAT .
3.18

In one line, give reported PBM binding z-score of the entry TCATATAGGTAAATTCTAGGTGAAAGTCCGATCT .
0.726

In one line, give reported PBM binding z-score of the entry CTTATTAGTTGACCATAAGGGCAACCGAAGCTCG .
0.553

In one line, give reported PBM binding z-score of the entry TCGAGTAGGTTAGGTGCATTCAGAATGGCGTCGA .
1.47

In one line, give reported PBM binding z-score of the entry CTACCAAGGTGAACAAGGTCGGTGATTACTATTC .
0.361

In one line, give reported PBM binding z-score of the entry AGAATGAGGGTATTAAGATCAGGGAATTGCGGTC .
0.315

In one line, give reported PBM binding z-score of the entry GCGACTGGGGCAAAGCAGGGTACCATAAGGTTGG .
-0.139

In one line, give reported PBM binding z-score of the entry TCTTGTAGATCAAGAGGAGGTTAAGAAAGATCGA .
-0.158

In one line, give reported PBM binding z-score of the entry GCTCGGAGGACAAGGTCAAAGCTTTGTCCGTAGA .
2.02

In one line, give reported PBM binding z-score of the entry CAAACTAGGTCAAGAAGTCAAAGTCCGCTTCCCG .
0.478

In one line, give reported PBM binding z-score of the entry CAAACTAGGTCAAGGTCAAAGCCGGTTTGTGCCA .
3.55

In one line, give reported PBM binding z-score of the entry GCGACTGAGGCAAAGCAGGTTACCATAAGGTTGG .
-0.64
